Organism: Rattus norvegicus
Assay: DrugMatrix - Regimen: Daily Repeat
Format: toxicity, organism-based, Sprague-Dawley
Parameters: regimen Daily Repeat, gender Male, age 6-8 weeks
Details: in vivo, po, 0 mg/kg, 72 h, tissue Blood, route oral GAVAGE, dose level Control, time 3 day, […]
propertyMeasured: MEAN CORPUSCULAR HEMOGLOBIN (pg)

| compound | propertyMeasured | measuredResult |
| --- | --- | --- |
| CCOC(=O)C(C)(C)Oc1ccc(Cl)cc1 [CLOFIBRATE] | MEAN CORPUSCULAR HEMOGLOBIN | 24.93 |
| Cc1cccc(Nc2ccncc2S(=O)(=O)NC(=O)NC(C)C)c1 [TORSEMIDE] | MEAN CORPUSCULAR HEMOGLOBIN | 23.98 |
| COCCOC(=O)C1=C(C)NC(C)=C(C(=O)OC(C)C)C1c1cccc([N+](=O)[O-])c1 (centres undefined) [NIMODIPINE] | MEAN CORPUSCULAR HEMOGLOBIN | 24.48 |
| Clc1ccc(Cl)cc1 [1,4-DICHLOROBENZENE] | MEAN CORPUSCULAR HEMOGLOBIN | 21.33 |
| CC(C)Cc1ccc(C(C)C(=O)O)cc1 (centres undefined) [IBUPROFEN] | MEAN CORPUSCULAR HEMOGLOBIN | 26.7 |
| O=C(O)Cc1ccccc1Nc1c(Cl)cccc1Cl [DICLOFENAC] | MEAN CORPUSCULAR HEMOGLOBIN | 24.07 |
| C[C@]12CC[C@@H]3c4ccc(O)cc4CC[C@H]3[C@@H]1CC[C@@H]2O [ESTRADIOL] | MEAN CORPUSCULAR HEMOGLOBIN | 23.98 |
| CCOC(=O)C1=C(C)NC(C)=C(C(=O)OC)C1c1cccc([N+](=O)[O-])c1 (centres undefined) [NITRENDIPINE] | MEAN CORPUSCULAR HEMOGLOBIN | 24.48 |
| COc1ccc2[nH]c([S+]([O-])Cc3ncc(C)c(OC)c3C)nc2c1 (centres undefined) [OMEPRAZOLE] | MEAN CORPUSCULAR HEMOGLOBIN | 24.25 |

* * *

Species: Rattus norvegicus
Experiment: DrugMatrix - Regimen: Daily Repeat
Assay type: toxicity, organism-based, Sprague-Dawley
Set-up: regimen Daily Repeat, gender Male, age 6-8 weeks
Settings: in vivo, po, 0 mg/kg, 120 h, tissue Plasma, route oral GAVAGE, dose level Control, time 5 day, vehicle .5 % CMC
Response key: yes (1) means TOTAL BILIRUBIN >= 0.3 mg/dL; no (0) means TOTAL BILIRUBIN < 0.3 mg/dL.

| compound | class |
| --- | --- |
| CC(=O)CC(c1ccccc1)c1c(O)c2ccccc2oc1=O (stereo not given) [WARFARIN] | no (0) |
| O=C1CCC(N2C(=O)c3ccccc3C2=O)C(=O)N1 (stereo not given) [THALIDOMIDE] | yes (1) |
| CC[C@@H](CO)NCCN[C@@H](CC)CO [ETHAMBUTOL] | yes (1) |
| CNC(=C[N+](=O)[O-])NCCSCc1ccc(CN(C)C)o1 [RANITIDINE] | no (0) |
| Clc1ccc2c(c1)C(N1CCNCC1)=Nc1ccccc1O2 [AMOXAPINE] | no (0) |
| C[C@]1(Cn2ccnn2)[C@H](C(=O)O)N2C(=O)C[C@H]2S1(=O)=O [TAZOBACTAM] | no (0) |
| N=C(N)NC(=O)c1nc(Cl)c(N)nc1N [AMILORIDE] | yes (1) |
| CC(C)[C@H]1CC[C@H](C(=O)N[C@H](Cc2ccccc2)C(=O)O)CC1 [NATEGLINIDE] | no (0) |
| CO[C@H]1/C=C/O[C@@]2(C)Oc3c(C)c(O)c4c(c3C2=O)C2=NC3(CCN(CC(C)C)CC3)NC2=C(NC(=O)/C(C)=C\C=C\[C@H](C)[C@H](O)[C@@H](C)[C@@H](O)[C@@H](C)[C@H](OC(C)=O)[C@@H]1C)C4=O [RIFABUTIN] | no (0) |
| Cc1onc(-c2ccccc2)c1-c1ccc(S(N)(=O)=O)cc1 [VALDECOXIB] | yes (1) |
| OC(CCN1CCCCC1)(c1ccccc1)C1CCCCC1 (stereo not given) [TRIHEXYPHENIDYL] | no (0) |
| O=[N+]([O-])c1ccccc1 [NITROBENZENE] | no (0) |
| CN1C(=O)COc2c(C(=O)NC3CN4CCC3CC4)cc(Cl)cc21 (stereo not given) [AZASETRON] | no (0) |
| C[C@](O)(CS(=O)(=O)c1ccc(F)cc1)C(=O)Nc1ccc(C#N)c(C(F)(F)F)c1 [(R)-BICALUTAMIDE] | no (0) |
| C#C[C@]1(O)CC[C@H]2[C@@H]3CCc4cc(OC)ccc4[C@H]3CC[C@@]21C [MESTRANOL] | no (0) |

* * *

Species on record: Rattus norvegicus
Experiment: DrugMatrix - Regimen: Daily Repeat
Assay type: toxicity, organism-based, Sprague-Dawley
Parameters: regimen Daily Repeat, gender Male, age 6-8 weeks
Conditions: in vivo, iv, 0 mg/kg, 72 h, tissue Plasma, dose level Control, time 3 day, vehicle 100 % SALINE
BLOOD UREA NITROGEN: recorded values

| compound | unitOfMeasure | BLOOD UREA NITROGEN |
| --- | --- | --- |
| COc1cccc2c1C(=O)c1c(O)c3c(c(O)c1C2=O)C[C@@](O)(C(=O)CO)C[C@@H]3O[C@H]1C[C@H](N)[C@H](O)[C@H](C)O1 [DOXORUBICIN] | mg/dL | 11 |
| CCc1c2c(nc3ccc(OC(=O)N4CCC(N5CCCCC5)CC4)cc13)-c1cc3c(c(=O)n1C2)COC(=O)[C@]3(O)CC [IRINOTECAN] | mg/dL | 16.33 |
| CCC1=C[C@@H]2CN(C1)Cc1c([nH]c3ccccc13)[C@@](C(=O)OC)(c1cc3c(cc1OC)N(C)[C@H]1[C@@](O)(C(=O)OC)[C@H](OC(C)=O)[C@]4(CC)C=CCN5CC[C@]31[C@@H]54)C2 [VINORELBINE] | mg/dL | 16.33 |
| COc1cccc2c1C(=O)c1c(O)c3c(c(O)c1C2=O)C[C@@](O)(C(=O)CO)C[C@@H]3O[C@H]1C[C@H](N)[C@@H](O)[C@H](C)O1 [EPIRUBICIN] | mg/dL | 16.33 |
| CC(=O)N[C@@H]1[C@H](Oc2c3cc4cc2Oc2ccc(cc2Cl)[C@@H](O[C@@H]2O[C@@H](CO)[C@@H](O)[C@H](O)[C@@H]2NC(C)=O)[C@@H]2NC(=O)[C@H](NC(=O)[C@@H]4NC(=O)[C@H]4NC(=O)[C@@H](Cc5ccc(c(Cl)c5)O3)NC(=O)[C@H](N)c3ccc(O)c(c3)Oc3cc(O)cc4c3)c3ccc(O)c(c3)-c3c(O[C@H]4O[C@H](CO)[C@@H](O)[C@@H](O)[C@@H]4O)cc(O)cc3[C@@H](C(=O)O)NC2=O)O[C@@H](CO)[C@@H](O)[C@@H]1O | mg/dL | 18 |
| CC[C@]1(O)C[C@@H]2CN(CCc3c([nH]c4ccccc34)[C@@](C(=O)OC)(c3cc4c(cc3OC)N(C)[C@H]3[C@@](O)(C(=O)OC)[C@H](OC(C)=O)[C@]5(CC)C=CCN6CC[C@]43[C@@H]65)C2)C1 [VINBLASTINE] | mg/dL | 13.5 |

* * *

Species on record: Rattus norvegicus
Assay: DrugMatrix - Regimen: Daily Repeat
Assay type: toxicity, organism-based, Sprague-Dawley
Set-up: regimen Daily Repeat, gender Male, age 6-8 weeks
Details: in vivo, po, 0 mg/kg, 72 h, tissue Blood, route oral GAVAGE, dose level Control, time 3 day, vehicle .5 % CMC

| compound | LYMPHOCYTE [%] |
| --- | --- |
| CC(C)[C@H]1CC[C@H](C(=O)N[C@H](Cc2ccccc2)C(=O)O)CC1 [NATEGLINIDE] | 91.67 |
| CC[C@@H](CO)NCCN[C@@H](CC)CO [ETHAMBUTOL] | 76 |
| C#C[C@]1(O)CC[C@H]2[C@@H]3CCc4cc(OC)ccc4[C@H]3CC[C@@]21C [MESTRANOL] | 91.67 |

* * *

Species on record: Rattus norvegicus
Assay: DrugMatrix - Regimen: Daily Repeat
Type: toxicity, organism-based, Sprague-Dawley
Parameters: regimen Daily Repeat, gender Male, age 6-8 weeks
Details: in vivo, po, 1500 mg/kg, 72 h, tissue Plasma, route oral GAVAGE, dose level High, time 3 day, vehicle .5 % CMC

| compound | CARBON DIOXIDE |
| --- | --- |
| Cc1ccc(S(=O)(=O)NC(=O)NN2CC3CCCC3C2)cc1 (configuration not stated) [GLICLAZIDE] | 26.33 mmol/L |
| CNC(=C[N+](=O)[O-])NCCSCc1ccc(CN(C)C)o1 [RANITIDINE] | 31 mmol/L |
| C[C@]1(Cn2ccnn2)[C@H](C(=O)O)N2C(=O)C[C@H]2S1(=O)=O [TAZOBACTAM] | 27.33 mmol/L |
| NC(=O)c1cnccn1 [PYRAZINAMIDE] | 28 mmol/L |
| Cc1cc(=O)n(-c2ccccc2)n1C [ANTIPYRINE] | 37 mmol/L |
| O=C(N[C@H](CO)[C@H](O)c1ccc([N+](=O)[O-])cc1)C(Cl)Cl [CHLORAMPHENICOL] | 37.67 mmol/L |
| CO[C@H]1/C=C/O[C@@]2(C)Oc3c(C)c(O)c4c(c3C2=O)C2=NC3(CCN(CC(C)C)CC3)NC2=C(NC(=O)/C(C)=C\C=C\[C@H](C)[C@H](O)[C@@H](C)[C@@H](O)[C@@H](C)[C@H](OC(C)=O)[C@@H]1C)C4=O [RIFABUTIN] | 31 mmol/L |
